- ASSAY_TARGET: T1, TNFR1 (Homo sapiens, UniProt P19438)
- T1 chain: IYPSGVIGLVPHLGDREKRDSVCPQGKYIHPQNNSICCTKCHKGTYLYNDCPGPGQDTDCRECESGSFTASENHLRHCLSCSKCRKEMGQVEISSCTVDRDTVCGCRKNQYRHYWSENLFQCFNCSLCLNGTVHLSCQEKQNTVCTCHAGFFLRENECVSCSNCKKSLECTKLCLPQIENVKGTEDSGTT
- TEST_NAME: yeast display SC50
READOUT_KIND: apparent Kd (screen) (nM)

BINDER	READOUT_KIND	MEASURED_RESULT
A106K (designed binder) SMEEEVEKAAKEYEKKKKEAIEKHLEKLKAKDKEAAERFLKELEEAAKEYAKDEAKTMSEEEAKRRAKKYKEKVLLSELSEEEQKEIKEAEEKLVRTILKYVEEAKK	apparent Kd (screen)	0.593
E81P (designed binder) SMEEEVEKAAKEYEKKKKEAIEKHLEKLKAKDKEAAERFLKELEEAAKEYAKDEAKTMSEEEAKRRAKKYKEKVLLSELSPEEQKEIKEAEEKLVRTILKYVEEAAK	apparent Kd (screen)	0.49
E44N (designed binder) SMEEEVEKAAKEYEKKKKEAIEKHLEKLKAKDKEAAERFLKELNEAAKEYAKDEAKTMSEEEAKRRAKKYKEKVLLSELSEEEQKEIKEAEEKLVRTILKYVEEAAK	apparent Kd (screen)	1.05
E103G (designed binder) SMEEEVEKAAKEYEKKKKEAIEKHLEKLKAKDKEAAERFLKELEEAAKEYAKDEAKTMSEEEAKRRAKKYKEKVLLSELSEEEQKEIKEAEEKLVRTILKYVGEAAK	apparent Kd (screen)	0.539
